From: patent US20230107890A1

List of pKd values.
- SYSTEM_NAME: Human Serum Albumin (HSA) (human, UniProt P02768 25-609)
- Sequence (P02768 25-609 limits assumed): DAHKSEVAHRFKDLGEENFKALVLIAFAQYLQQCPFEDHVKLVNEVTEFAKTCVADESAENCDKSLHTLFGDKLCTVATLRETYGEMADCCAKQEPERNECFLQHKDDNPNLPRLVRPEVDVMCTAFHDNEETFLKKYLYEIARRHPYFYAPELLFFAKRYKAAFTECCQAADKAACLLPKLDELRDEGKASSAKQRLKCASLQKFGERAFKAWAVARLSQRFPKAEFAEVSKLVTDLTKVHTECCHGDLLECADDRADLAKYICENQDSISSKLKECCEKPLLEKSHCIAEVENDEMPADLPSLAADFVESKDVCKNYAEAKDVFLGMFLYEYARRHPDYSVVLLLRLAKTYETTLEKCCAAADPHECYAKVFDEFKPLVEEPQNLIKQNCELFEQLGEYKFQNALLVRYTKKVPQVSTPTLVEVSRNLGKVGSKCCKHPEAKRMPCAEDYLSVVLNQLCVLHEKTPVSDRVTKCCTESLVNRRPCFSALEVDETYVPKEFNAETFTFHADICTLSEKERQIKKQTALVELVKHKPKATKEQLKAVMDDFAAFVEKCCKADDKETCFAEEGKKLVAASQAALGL
- MEASUREMENT_NOTES: SPR (Biacore T200), HSA immobilised on CM5 chip
- Protocol: Target binding analysis was performed on a Biacore T200 system (GE Healthcare, Stockholm, Sweden) by injecting analytes over a CM5 chip immobilized with Murine Serum Albumin (MSA), Human Serum Albumin (HSA) and Human Epidermal growth factor receptor 2 (HER2) to a response level of […] each. Experimental parameters have been described previously (Garousi 2019).
pKd: −log10 of the molar value.

[
  {
    "BINDER": "MG-DEAVDANS-ABD35-(SSSG)5-ADAPT6-GSSC (designed binder, also called ABD035-(SSSG)5-ADAPT6) MGDEAVDANSLAEAKVLANRELDKYGVSDFYKRLINKAKTVEGVEALKLHILAALPSSSGSSSGSSSGSSSGSSSGLAAAKETALYHLDRLGVADAYKDLIDKAKTVEGVKARYFEILHALPGSSC",
    "pKd": 10.28
  },
  {
    "BINDER": "MG-DEAVDANS-ADAPT6-(SSSG)3-ABD035-GSSC (designed binder) MGDEAVDANSLAAAKETALYHLDRLGVADAYKDLIDKAKTVEGVKARYFEILHALPSSSGSSSGSSSGLAEAKVLANRELDKYGVSDFYKRLINKAKTVEGVEALKLHILAALPGSSC",
    "pKd": 10.30
  },
  {
    "BINDER": "MG-DEAVDANS-ADAPT6-(SSSG)5-ABD35-GSSC (designed binder, also called ADAPT6-(SSSG)5-ABD035) MGDEAVDANSLAAAKETALYHLDRLGVADAYKDLIDKAKTVEGVKARYFEILHALPSSSGSSSGSSSGSSSGSSSGLAEAKVLANRELDKYGVSDFYKRLINKAKTVEGVEALKLHILAALPGSSC",
    "pKd": 10.27
  },
  {
    "BINDER": "MG-DEAVDANS-ABD035-(SSSG)3-ADAPT6-GSSC (designed binder, also called ABD035-ADAPT6) MGDEAVDANSLAEAKVLANRELDKYGVSDFYKRLINKAKTVEGVEALKLHILAALPSSSGSSSGSSSGLAAAKETALYHLDRLGVADAYKDLIDKAKTVEGVKARYFEILHALPGSSC",
    "pKd": 10.28
  }
]
